- STUDY_TARGET: COX I (Homo sapiens)
- Construct: made in house; baculovirus-infected insect cells by own knowledge of the cited Barnett et al. 1994
- Sequence (P23219 24-599): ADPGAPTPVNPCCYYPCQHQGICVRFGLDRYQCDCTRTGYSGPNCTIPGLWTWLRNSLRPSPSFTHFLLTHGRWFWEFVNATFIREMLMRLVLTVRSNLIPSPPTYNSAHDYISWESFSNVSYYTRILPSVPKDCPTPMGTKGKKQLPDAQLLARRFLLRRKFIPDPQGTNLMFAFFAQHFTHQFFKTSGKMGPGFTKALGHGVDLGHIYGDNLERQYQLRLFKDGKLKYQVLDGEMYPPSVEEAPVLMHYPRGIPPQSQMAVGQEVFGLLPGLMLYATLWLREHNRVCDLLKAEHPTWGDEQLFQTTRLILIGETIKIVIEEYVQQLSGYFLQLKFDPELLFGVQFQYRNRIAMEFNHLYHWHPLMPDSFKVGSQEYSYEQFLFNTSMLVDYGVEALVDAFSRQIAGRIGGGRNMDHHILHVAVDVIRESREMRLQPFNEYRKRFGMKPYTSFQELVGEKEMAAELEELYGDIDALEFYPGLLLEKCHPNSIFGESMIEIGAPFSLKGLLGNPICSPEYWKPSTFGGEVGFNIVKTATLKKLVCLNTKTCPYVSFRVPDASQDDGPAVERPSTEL
- MEASUREMENT_NOTES: Inhibition of COX I in vitro (radiometric assay, 14C arachidonic acid, partially purified enzyme)
- Format: biochemical
- CONDITION_DESCRIPTION: partially purified COX I, 20 micromolar arachidonic acid, 10 min preincubation, room temperature; read-out: COX I IC50
# log10 IC50 per record follows
The common logarithm of IC50 in µM is what is listed.

The following compounds have reported results that may help.
Fill in the blank: the reported log10 IC50 of Cc1cc(Cc2ccc(NC(=O)N(C)C)cn2)n(C)c1C(=O)c1ccc(Cl)cc1 [compound 308] is ____.
2.81

Fill in the blank: the reported log10 IC50 of Cc1cc(Cc2ccc(NC(=O)NCCCl)cn2)n(C)c1C(=O)c1ccc(Cl)cc1 [compound 310] is ____.
2.15

Further cases:
Fill in the blank: the reported log10 IC50 of COc1ccc(C(=O)c2c(C)cc(Cc3ncc(NS(C)(=O)=O)cc3Cl)n2C)cc1 [compound 284] is ____.
1.34

Fill in the blank: the reported log10 IC50 of COc1ccc(C(=O)c2ccc(Cc3ccc(NS(N)(=O)=O)cc3F)n2C)cc1 [compound 196] is ____.
0.70

Fill in the blank: the reported log10 IC50 of COc1ccc(C(=O)c2ccc3n2CCC3c2ccc(NS(=O)(=O)CCO)cc2Cl)cc1 (centres unmarked) [compound 133] is ____.
-1.35

Fill in the blank: the reported log10 IC50 of Cc1cc(Cc2ccc(NS(C)(=O)=O)cc2F)n(C)c1C(=O)c1ccccc1 [compound 60] is ____.
-0.80

Fill in the blank: the reported log10 IC50 of COc1ccc(C(=O)c2c(C)cc(Cc3ccc(NS(C)(=O)=O)cn3)n2C)cc1 [compound 289] is ____.
1.01

Fill in the blank: the reported log10 IC50 of Cc1cc(Cc2ccc(NS(N)(=O)=O)cn2)n(C)c1C(=O)c1ccccc1 [compound 295] is ____.
-0.22

Fill in the blank: the reported log10 IC50 of Cc1ccc(C(=O)c2ccc(Cc3ccc(NS(C)(=O)=O)cc3)n2C)cc1 [compound 28] is ____.
1.52

Fill in the blank: the reported log10 IC50 of Cc1cc(Cc2ccc(NS(C)(=O)=O)cc2F)n(C)c1C(=O)c1cccs1 [compound 340] is ____.
-1.70

Fill in the blank: the reported log10 IC50 of CSc1ccc(C(=O)c2c(C)cc(Cc3ccc(NS(=O)(=O)N(C)C)cn3)n2C)cc1 [compound 296] is ____.
-0.68

Fill in the blank: the reported log10 IC50 of Cc1cc(Cc2ccc(NS(C)(=O)=O)cn2)n(C)c1C(=O)c1ccc(Cl)cc1 [compound 263] is ____.
1.69

Fill in the blank: the reported log10 IC50 of Cc1cc(Cc2ccc(NC=O)cn2)n(C)c1C(=O)c1ccc(Cl)cc1 [compound 330] is ____.
1.79
